Experiment: Total clearance in human
Assay type: ADME, organism-based
Conditions: in vivo

{"columns": ["Smiles Input", "clearance"],
 "data": [
  ["CC(=O)NC[C@H]1CN(c2ccc(N3CCOCC3)c(F)c2)C(=O)O1", "100 mL/min"]
]}

###

Experiment: Drug level in human urine
Assay type: ADME, tissue-based
Conditions: read-out: Drug uptake

{"columns": ["Smiles Input", "dose excreted"],
 "data": [
  ["CC(=O)NC[C@H]1CN(c2ccc(N3CCOCC3)c(F)c2)C(=O)O1", "20%"]
]}

###

Assay: Drug level in human lung epithelial lining fluid at 600 mg, po bid after 4 hrs
Type: ADME, organism-based
Details: read-out: Drug uptake
Measurement Type: concentration at 4 h (µg/mL)

{"columns": ["Smiles Input", "Recorded Measurement"],
 "data": [
  ["CC(=O)NC[C@H]1CN(c2ccc(N3CCOCC3)c(F)c2)C(=O)O1", 64.3]
]}
